- EXPERIMENT: Primary qHTS for delayed death inhibitors of the malarial parasite plastid, 96 hour incubation
- MEASUREMENT_SETUP: P. falciparum luciferase reporter growth; series mostly up to 28.7 µM
Hit rate of the full screen: of about 320,000 compounds, about 22,000 (6.9%) were called active. Another 27% or so got no clear call; they are omitted. Calls follow the shape of the dose curve; as a rule, active = well fitted inhibition curve with a large enough effect; inconclusive = small, poorly fitted or top-dose-only effect, or another doubt; inactive = no such curve, though single readings can be large or run the other way. This excerpt belongs to a sample that is enriched for actives.
Hello, when you answer, please use one of the following outcomes: T = active, F = inactive

# fetch the recorded call for `COCCn1c(SCC(=O)Nc2ccc3c(c2)CCC3)nc2ccccc2c1=O` here
F

# fetch the recorded call for COc1ccc(OC)c(C(C)NC(=S)Nc2ccc(S(=O)(=O)Nc3ncccn3)cc2)c1 (stereo not given) here
F

# fetch the recorded call for `COc1cc(C)c(C)cc1S(=O)(=O)N1CCCc2ccccc21` here
F

# fetch the recorded call for CCOC(=O)c1ccc(NC(=O)c2ccc(NC(=O)C3CCCO3)cc2)cc1 (stereo not given) here
F

# fetch the recorded call for CC1CCCCN1S(=O)(=O)c1ccc(C(=O)Nc2nnc(-c3cccs3)o2)cc1 (stereo not given) here
F

# fetch the recorded call for `CCOC(=O)C1CCN(C(=O)Nc2cccc(OC)c2)CC1` here
F

# fetch the recorded call for `CCC(=O)NCc1cc(-c2nn(C)c(=O)c3ccccc23)ccc1OC` here
F

# fetch the recorded call for `Nc1c(N(Cc2ccco2)C(=O)c2cccc(F)c2)c(=O)[nH]c(=O)n1Cc1ccccc1` here
F

# fetch the recorded call for Clc1ccc(C(Cn2ccnc2)OCc2ccsc2Cl)c(Cl)c1 (stereo not given) here
T

# fetch the recorded call for `Cc1c(-c2nn(C)c(=O)c3ccccc23)oc2ccc(F)cc2c1=O` here
T

Continuing:
# fetch the recorded call for `CCOC(=O)[C@H]1[C@H]2COc3cc(OC)ccc3[C@@H]2N2C(=O)N(c3ccc(Br)cc3)C(=O)[C@@]12C` here
T

# fetch the recorded call for `O=C1NNC(c2ccccc2)=N/C1=C\c1ccc(Cl)cc1` here
T

# fetch the recorded call for `Cc1ccc(-c2nc3ccccc3[nH]c2=O)cc1` here
F

---

- EXPERIMENT: Primary qHTS for delayed death inhibitors of the malarial parasite plastid, 96 hour incubation
- MEASUREMENT_SETUP: P. falciparum luciferase reporter growth; series mostly up to 28.7 µM
Hit rate of the full screen: of about 320,000 compounds, about 22,000 (6.9%) were called active. About 27% were inconclusive and are not listed. Calls come from the whole dose curve; as a rule, active = well fitted inhibition curve with a large enough effect; inconclusive = small, poorly fitted or top-dose-only effect, or another doubt; inactive = no such curve, though single readings can be large or run the other way. The entries come from a sample that favours actives as a whole.
Hello, when you answer, please use one of the following outcomes: class 1 for active, class 0 for inactive

Reference set (10 entries):
# fetch the recorded call for `CC(=O)Oc1ccc2c(c1)C(=O)c1ccccc1C2=O` here
class 0

# fetch the recorded call for `COc1ccccc1-n1c(-c2cc(-c3ccco3)[nH]n2)n[nH]c1=S` here
class 0

# fetch the recorded call for `CCOC(=O)c1c(C)[nH]c(C)c1S(=O)(=O)N(C)CC(=O)Nc1ccccc1C` here
class 0

# fetch the recorded call for `Cc1ccc2[nH]cc(CCNC(=O)C3CCCCC3)c2c1` here
class 0

# fetch the recorded call for `Cc1ccc2[nH]c(C)c(CCNC(=O)NC3CCCCC3)c2c1` here
class 1

# fetch the recorded call for `CCOc1ncccc1C(=O)NCCc1ccc(OC)cc1` here
class 0

# fetch the recorded call for COCCn1c(SCC(=O)Nc2cc(OC)ccc2OC)nc2c(c1=O)SC(C)C2 (centres undefined) here
class 0

# fetch the recorded call for `COc1cccc(C(=O)OCc2cc(=O)oc3c(C)c(C)ccc23)c1OC` here
class 0

# fetch the recorded call for `COc1cccc2cc(-c3cc(=O)oc4cc(C)c(O)cc34)oc12` here
class 1

# fetch the recorded call for `CCOc1ccc(NC(=O)CCC(=O)N/N=C/c2ccc([N+](=O)[O-])s2)cc1` here
class 1

Continuing:
# fetch the recorded call for CCn1c(SCC(=O)Nc2ccccc2F)nc2c(c1=O)SC(C)C2 (centres undefined) here
class 1

# fetch the recorded call for `CSC1=N/C(=C\c2ccc3c(c2)OCO3)C(=O)S1` here
class 0

# fetch the recorded call for `CSC1=N/C(=C\C=C\c2cccs2)C(=O)S1` here
class 1

# fetch the recorded call for `CCn1cc(/C=C(\NC(=O)c2cc(OC)c(OC)c(OC)c2)C(=O)N2CCN(C)CC2)c2ccccc21` here
class 0

# fetch the recorded call for `CCn1c(SCC(=O)Nc2sc(C)c(C)c2C#N)nnc1C1CC1` here
class 0

# fetch the recorded call for CCn1c(SCC(=O)Nc2ccc3c(c2)OCCO3)nc2c(c1=O)SC(C)C2 (centres undefined) here
class 0

# fetch the recorded call for `NS(=O)(=O)c1ccc(CCNC(=O)NC2CCCCC2)cc1` here
class 0

# fetch the recorded call for CCCCSc1nc2c(c(=O)n1CC)SC(C)C2 (centres undefined) here
class 0

# fetch the recorded call for `CCOc1ccc(NC(=O)CCC(=O)NNC(=O)NC2CCCCC2)cc1` here
class 0

The reported numbers originate from PubChem BioAssay AID504834.
